Test system: M14
test.details: NCI tumour cell line growth inhibition, 48 h
Calls of active or inactive are those of the source. No stated cut-off is given here; in the data, active = GI50 up to about 1.1 µM and inactive = higher.
parameter.measured: GI50

query: Item Nc1nc(N)nc(CCCc2nc(N)nc(N)n2)n1 has what recorded GI50?
result: > 100 µM (inactive)

query: One more molecule: O=C1/C(=C/c2ccccc2)CCC/C1=C\c1ccccc1
result: 6.44 µM (inactive)

query: Quick one: COc1ccc2nc3cccc(C(=O)NCCN(C)C)c3nc2c1
result: 2.28 µM (inactive)

query: Another molecule to look at: Nc1nc2cc(Cl)ccc2n1N
result: > 100 µM (inactive)

query: Follow-up item: C=C(Br)N(CC)CC
result: > 100 µM (inactive)

query: What about CC(C)CCCC(C)[C@H]1CCC2[C@@H]3CCC4Nc5c(cnn5-c5ccccc5)C[C@]4(C)C3CC[C@@]21C (some centres not stated) ?
result: 39.8 µM (inactive)

query: Queued: N#Cc1ccccc1NC(=O)C(=O)C(C(=O)c1ccccc1-c1ccccc1)C1OC(=O)c2ccccc21 (configuration not stated)
result: 15.4 µM (inactive)

###

Tested on: CAKI-1
test.details: NCI tumour cell line growth inhibition, 48 h
The source made the active and inactive calls. Rule as the data show it: active = GI50 up to about 1.1 µM and inactive = higher.
Returns: one label drawn from active, inactive

query: Could you kindly confirm the outcome this assay logged for CC[P+](C)(C)c1ccccc1 ?
result: inactive

query: Next entry: C[n+]1c2ccccc2c(/C=N\NS(=O)(=O)c2ccc(Cl)cc2)c2ccccc21
result: inactive

query: Also, CC(C)OC(=O)C1=C(O)c2ccccc2S(=O)(=O)N1 please.
result: inactive

query: Follow-up entry: COC(=O)[C@@]1(Cc2ccc(OC(C)=O)cc2)Cc2cc3ccccc3n2N1
result: inactive

query: And the next one, Cc1cccc(N/C(Sc2ccccc2)=C(/C(Cl)=C(Cl)Cl)[N+](=O)[O-])c1 ?
result: inactive

query: Consider next the molecule COc1ccc(NC(=O)C(=O)NO)c(OC)c1 in the same way.
result: inactive

query: Can you check CCOC(=O)c1ccc(C(=O)C(C(C)=O)C(=O)OC(C)(C)C)[nH]1 (stereo unspecified) next?
result: inactive

query: What about this molecule? CC(C)(Br)C(Br)CCC1(C2CO2)CO1 (stereo unspecified)
result: inactive

query: And what about the molecule CCOC(=O)/C=C(\C(=O)OCC)n1cc(C)c(=O)n(Cc2cnnn2CCCCOC(C)=O)c1=O ?
result: inactive

query: Similarly, COc1cc([C@@H]2c3cc4c(cc3[C@@H](NCc3ccccc3)C3COC(=O)[C@@H]32)OCO4)cc(OC)c1O (stereo partly specified) ?
result: inactive

query: Try this molecule too: CC1=C2C(=C[C@@](C)(CO)[C@@H]2O)C(=O)[C@](C)(O)C12CC2
result: active

query: And what about the molecule CCOC(=O)C1C(=O)CN2CCc3c([nH]c4ccccc34)C12C(=O)OCC (stereo unspecified) ?
result: inactive

query: Param item: CN(C)C(=S)SCC(N)=O
result: inactive

query: And the next one, C=CC(=O)N1C/C(=C\c2ccc([N+](=O)[O-])cc2)C(=O)/C(=C/c2ccc([N+](=O)[O-])cc2)C1 ?
result: active

query: And for O=C1/C(=C/c2ccccc2)CCC/C1=C\c1ccccc1 ?
result: inactive

query: Consider next the molecule N#CC(O)CCOCc1ccccc1 (stereo unspecified) in the same way.
result: inactive

query: Then this molecule: COC1=C(Br)[C@H](O)[C@@]2(C=C1Br)CC(C(=O)NCCCOc1c(Br)cc(C(O)CNC(C)=O)cc1Br)=NO2 (stereo partly specified)
result: inactive

query: How about this molecule: CN(C(=O)C1=CCCCCC1)c1ccccc1I
result: inactive

query: Can you handle O=P1(C(O)/C=C/c2ccccc2)N(Cc2ccccc2)[C@@H]2CCCC[C@H]2N1Cc1ccccc1 (stereo partly specified) next?
result: inactive

query: Same lookup for CCCCCCNC(=O)C1=C(C)NC(C)=C(C(=O)NCCCCCC)C1 , please.
result: inactive

query: Now give it for Cc1ncc([N+](=O)[O-])n1CC[N+](C)([O-])CCCCn1ccnc1[N+](=O)[O-] (stereo unspecified) too.
result: inactive

query: Next molecule up: C#CCOC(=O)C(=[N+]=[N-])C(=O)CC(C)C
result: inactive

query: # iterate: O=C(OC(=C(c1ccccc1)c1ccccc1)N1CCCC1=S)C(c1ccccc1)c1ccccc1
result: inactive

query: Note, next up: Cc1ccc(-c2nnc3s/c(=C\c4ccc(N(C)C)cc4)c(=O)n23)cc1
result: inactive

query: Record: C[C@@H](CO)C1=C(O)C(=O)c2c(ccc3c2CCCC3(C)C)C1=O
result: inactive

query: Param item: CSC1=Nc2ccccc2N(C)c2c1c(-c1ccccc1)nn2C
result: inactive

query: Please answer likewise for CCOP(=O)(OCC)C(Cc1c[nH]c2ccccc12)C(=O)O (stereo unspecified)
result: inactive

query: Input CN(CCCNC(=O)c1n[nH]c2c1ccc1ccccc12)CCCNC(=O)c1n[nH]c2c1ccc1ccccc12
result: inactive

query: Next up: CC12CCC(O)CC1CCC1C2CCC2(C)C(C(=O)CC(O)C(F)(F)F)CCC12 (stereo unspecified)
result: inactive

query: Now give it for N#Cc1nn(-c2ccc(Cl)cc2)c(=N)c2c(N)n3nc(-c4ccccc4)cc3nc12 too.
result: active

query: Can you check Nc1nc(Cl)c(N)c(NCC2(CO)CCC(OCc3ccccc3)C2)n1 (stereo unspecified) next?
result: inactive

query: And then O=C(O)C(Cc1ccccc1)Cc1ccccc1 , what is it?
result: inactive

query: And Cc1c2cc[n+](C)cc2c(C)c2c1[nH]c1ccc(Cl)cc12 ?
result: inactive

query: Now give it for CONC(C)=O too.
result: inactive

query: Same lookup for CN(NC(=O)/C(=C\c1ccco1)NC(=O)c1ccccc1)c1cn[nH]c(=O)c1Cl , please.
result: inactive

query: Same lookup for Nc1ccn(C2OC(COC(=O)C34CC5CC(CC(C5)C3)C4)C(O)C2O)c(=O)n1 (stereo unspecified) , please.
result: inactive

query: Okay, and Nc1nc2cc(Cl)ccc2n1N ?
result: inactive

query: Same for CCOC(=O)/C(=C\c1ccc(F)cc1)C(C)=O
result: inactive

query: Proceed to CCN(CC)C(=O)c1ccc(C)c(/N=N/N(C)C)c1
result: inactive

query: Query FC(F)(F)C1(C(F)(F)F)C2CCC3(CC(F)(F)C(F)(F)S3)C1C2 (stereo unspecified) next
result: inactive

query: // repeat for COC1=C(C(c2cc(OC)c(OC)c(OC)c2)c2cc3c(cc2OC)OCO3)C(=O)OC1 (stereo unspecified) and report
result: inactive
